- Tested target: Non-receptor tyrosine-protein kinase TYK2 (Homo sapiens)
- Sequence (P29597 whole entry): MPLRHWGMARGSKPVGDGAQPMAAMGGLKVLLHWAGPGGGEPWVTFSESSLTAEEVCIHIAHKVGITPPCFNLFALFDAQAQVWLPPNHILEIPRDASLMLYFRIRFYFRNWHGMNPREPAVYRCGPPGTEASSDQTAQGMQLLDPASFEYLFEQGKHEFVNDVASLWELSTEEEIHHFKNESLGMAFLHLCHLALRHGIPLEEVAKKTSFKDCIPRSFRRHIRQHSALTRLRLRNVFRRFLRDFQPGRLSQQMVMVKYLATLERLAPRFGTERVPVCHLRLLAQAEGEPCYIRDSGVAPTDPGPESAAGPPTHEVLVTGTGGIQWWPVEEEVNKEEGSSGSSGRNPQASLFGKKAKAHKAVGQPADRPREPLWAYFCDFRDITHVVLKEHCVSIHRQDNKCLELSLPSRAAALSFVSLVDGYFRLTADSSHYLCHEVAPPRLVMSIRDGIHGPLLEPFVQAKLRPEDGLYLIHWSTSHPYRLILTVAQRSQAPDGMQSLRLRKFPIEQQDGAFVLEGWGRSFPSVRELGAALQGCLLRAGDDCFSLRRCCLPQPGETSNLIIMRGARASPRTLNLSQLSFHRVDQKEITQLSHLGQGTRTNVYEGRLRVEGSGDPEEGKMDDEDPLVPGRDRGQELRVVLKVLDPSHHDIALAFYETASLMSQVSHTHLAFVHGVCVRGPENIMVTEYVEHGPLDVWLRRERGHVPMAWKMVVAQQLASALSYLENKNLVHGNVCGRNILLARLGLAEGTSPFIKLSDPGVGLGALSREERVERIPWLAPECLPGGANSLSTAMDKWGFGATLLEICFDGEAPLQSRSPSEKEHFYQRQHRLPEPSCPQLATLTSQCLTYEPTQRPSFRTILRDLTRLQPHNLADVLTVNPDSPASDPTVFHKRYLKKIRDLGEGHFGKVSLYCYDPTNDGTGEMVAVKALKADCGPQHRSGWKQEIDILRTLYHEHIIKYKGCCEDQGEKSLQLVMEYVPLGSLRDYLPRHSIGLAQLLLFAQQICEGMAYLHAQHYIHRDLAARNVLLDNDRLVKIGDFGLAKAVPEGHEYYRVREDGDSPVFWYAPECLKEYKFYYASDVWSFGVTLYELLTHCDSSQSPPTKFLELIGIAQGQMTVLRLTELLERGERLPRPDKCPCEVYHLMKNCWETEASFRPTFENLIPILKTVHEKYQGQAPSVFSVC
pIC50: −log10 of the molar value.
Form field: pIC50 (one value per entry).

{"Mol": "C=CC(=O)Nc1cccc(Nc2ncc(Cl)c(O[C@@H]3CO[C@H]4[C@@H]3OC[C@H]4O)n2)c1", "pIC50": 7.03}
{"Mol": "C=CC(=O)Nc1cc(Nc2ncc(Cl)c(O[C@@H]3CO[C@H]4[C@@H]3OC[C@H]4O)n2)ccc1N1CCC(N2CCN(C)CC2)CC1", "pIC50": 6.43}

---

- Tested target: Tyrosine-protein kinase JAK3 (Homo sapiens, UniProt P52333)
- Sequence (P52333 whole entry): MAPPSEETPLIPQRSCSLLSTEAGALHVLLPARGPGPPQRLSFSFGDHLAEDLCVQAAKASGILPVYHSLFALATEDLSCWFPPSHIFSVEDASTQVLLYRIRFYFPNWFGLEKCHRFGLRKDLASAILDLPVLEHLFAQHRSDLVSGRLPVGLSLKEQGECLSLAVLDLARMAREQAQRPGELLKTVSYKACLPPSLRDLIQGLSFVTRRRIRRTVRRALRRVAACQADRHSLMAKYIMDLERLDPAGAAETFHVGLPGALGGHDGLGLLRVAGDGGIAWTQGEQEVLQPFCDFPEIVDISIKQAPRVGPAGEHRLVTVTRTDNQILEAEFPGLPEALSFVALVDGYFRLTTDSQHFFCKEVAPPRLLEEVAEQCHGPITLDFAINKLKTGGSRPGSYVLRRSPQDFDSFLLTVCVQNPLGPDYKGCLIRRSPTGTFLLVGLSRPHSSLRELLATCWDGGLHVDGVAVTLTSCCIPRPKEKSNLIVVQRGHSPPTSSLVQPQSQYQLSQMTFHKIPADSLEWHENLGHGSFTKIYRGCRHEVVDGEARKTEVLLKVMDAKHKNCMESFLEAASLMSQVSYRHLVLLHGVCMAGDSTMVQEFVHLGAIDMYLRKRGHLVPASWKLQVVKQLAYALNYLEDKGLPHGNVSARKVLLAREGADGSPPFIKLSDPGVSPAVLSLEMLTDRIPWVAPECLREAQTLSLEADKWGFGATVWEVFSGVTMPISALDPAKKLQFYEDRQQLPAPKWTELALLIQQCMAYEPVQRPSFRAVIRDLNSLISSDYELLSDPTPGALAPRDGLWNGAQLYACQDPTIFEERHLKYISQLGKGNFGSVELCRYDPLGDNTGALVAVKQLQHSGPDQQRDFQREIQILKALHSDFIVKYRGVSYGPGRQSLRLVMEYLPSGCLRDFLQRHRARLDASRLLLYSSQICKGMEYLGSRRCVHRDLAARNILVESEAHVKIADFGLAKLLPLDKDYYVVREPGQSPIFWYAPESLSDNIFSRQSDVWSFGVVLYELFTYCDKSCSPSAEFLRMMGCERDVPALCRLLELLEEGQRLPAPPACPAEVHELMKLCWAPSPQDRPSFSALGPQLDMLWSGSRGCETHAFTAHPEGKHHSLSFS
Experimental readout: IC50

{"Molecule": "C#CCCN(C)CCN(C)c1ccc(Nc2ncc(Cl)c(O[C@@H]3CO[C@H]4[C@@H]3OC[C@H]4OC)n2)cc1NC(=O)C=C", "Tested target": "Tyrosine-protein kinase JAK3 (Homo sapiens, UniProt P52333)", "Measured result": "1.7 nM"}
{"Molecule": "C=CC(=O)Nc1cc(Nc2ncc(Cl)c(O[C@@H]3CO[C@H]4[C@@H]3OCC4(F)F)n2)ccc1N(C)CCN(C)C", "Tested target": "Tyrosine-protein kinase JAK3 (Homo sapiens, UniProt P52333)", "Measured result": "1.2 nM"}
{"Molecule": "C=CC(=O)Nc1cc(Nc2ncc(Cl)c(O[C@@H]3CO[C@H]4[C@@H]3OC[C@H]4O)n2)ccc1N1CCC(N(C)C)C1 (stereo not given in full)", "Tested target": "Tyrosine-protein kinase JAK3 (Homo sapiens, UniProt P52333)", "Measured result": "1.9 nM"}
{"Molecule": "C=CC(=O)Nc1cc(Nc2ncc(Cl)c(O[C@@H]3CO[C@H]4[C@@H]3OC[C@H]4OC)n2)ccc1N(C)CCN(C)C", "Tested target": "Tyrosine-protein kinase JAK3 (Homo sapiens, UniProt P52333)", "Measured result": "1.2 nM"}
{"Molecule": "C=CC(=O)Nc1cc(Nc2ncc(Cl)c(O[C@@H]3CO[C@H]4[C@@H]3OC[C@H]4O)n2)ccc1N1C[C@H]2C[C@@H]1CN2C", "Tested target": "Tyrosine-protein kinase JAK3 (Homo sapiens, UniProt P52333)", "Measured result": "1.5 nM"}
{"Molecule": "C=CC(=O)Nc1cc(Nc2ncc(Cl)c(O[C@@H]3CO[C@H]4[C@@H]3OC[C@H]4F)n2)ccc1N(C)CCN(C)C", "Tested target": "Tyrosine-protein kinase JAK3 (Homo sapiens, UniProt P52333)", "Measured result": "1.3 nM"}
{"Molecule": "C=CC(=O)Nc1cc(Nc2ncc(Cl)c(O[C@@H]3CO[C@H]4[C@@H]3OC[C@H]4O)n2)ccc1N1CCC(N2CCN(C)CC2)CC1", "Tested target": "Tyrosine-protein kinase JAK3 (Homo sapiens, UniProt P52333)", "Measured result": "1.8 nM"}
{"Molecule": "C=CC(=O)Nc1cc(Nc2ncc(Cl)c(O[C@@H]3CO[C@H]4[C@@H]3OC[C@H]4OC(C)C)n2)ccc1N(C)CCN(C)C", "Tested target": "Tyrosine-protein kinase JAK3 (Homo sapiens, UniProt P52333)", "Measured result": "1.3 nM"}
{"Molecule": "C=CC(=O)Nc1cc(Nc2ncc(Cl)c(O[C@@H]3CO[C@H]4[C@@H]3OC[C@H]4O)n2)ccc1N1CCOCC1", "Tested target": "Tyrosine-protein kinase JAK3 (Homo sapiens, UniProt P52333)", "Measured result": "1.6 nM"}
{"Molecule": "C=CC(=O)Nc1cccc(Nc2ncc(Cl)c(O[C@@H]3CO[C@H]4[C@@H]3OC[C@H]4O)n2)c1", "Tested target": "Tyrosine-protein kinase JAK3 (Homo sapiens, UniProt P52333)", "Measured result": "1.2 nM"}

---

- Tested target: Tyrosine-protein kinase JAK3 (Homo sapiens)
- Experimental protocol: Inhibition of human JAK3
Experimental readout: IC50 (nM)

{"Mol": "C=CC(=O)Nc1cc(Nc2ncc(Cl)c(O[C@@H]3CO[C@H]4[C@@H]3OC[C@H]4OC)n2)ccc1N(C)CCN(C)C", "Measured result": 8}

---

- Tested target: NUAK family SNF1-like kinase 1 (Homo sapiens, UniProt O60285)
- Sequence (O60285 whole entry): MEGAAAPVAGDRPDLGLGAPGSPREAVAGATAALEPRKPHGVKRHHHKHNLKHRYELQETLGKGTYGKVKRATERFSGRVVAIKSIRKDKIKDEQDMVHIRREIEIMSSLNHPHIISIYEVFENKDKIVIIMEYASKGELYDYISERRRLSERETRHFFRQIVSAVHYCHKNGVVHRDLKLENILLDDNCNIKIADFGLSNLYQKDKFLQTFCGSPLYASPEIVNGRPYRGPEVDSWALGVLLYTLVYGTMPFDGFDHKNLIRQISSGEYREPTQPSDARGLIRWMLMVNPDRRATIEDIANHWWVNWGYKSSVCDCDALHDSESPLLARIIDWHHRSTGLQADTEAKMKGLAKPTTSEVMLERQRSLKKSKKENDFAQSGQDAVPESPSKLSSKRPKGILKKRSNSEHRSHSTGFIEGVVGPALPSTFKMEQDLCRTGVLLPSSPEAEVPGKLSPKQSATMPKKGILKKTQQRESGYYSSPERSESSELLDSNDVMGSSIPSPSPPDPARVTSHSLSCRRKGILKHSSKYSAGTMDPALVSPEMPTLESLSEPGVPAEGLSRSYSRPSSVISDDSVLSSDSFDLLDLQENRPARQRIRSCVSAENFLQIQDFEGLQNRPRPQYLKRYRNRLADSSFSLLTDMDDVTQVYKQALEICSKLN
pIC50: −log10 of the molar value.

{"Mol": "C=CC(=O)Nc1cc(Nc2ncc(Cl)c(O[C@@H]3CO[C@H]4[C@@H]3OC[C@H]4OC)n2)ccc1N(C)CCN(C)C", "pIC50": 7.60}

---

Form field: Cmax (one value per entry).
- Experimental protocol: Cmax in 12 hr fasted SPF Sprague-Dawley rat at 5 mg/kg, iv upon 2 hrs fasting post-administration measured upto 24 hrs
- Format: ADME, organism-based
- Design: dose 5 mg/kg, time < 24 hrs, route iv
- Conditions: in vivo
Experimental readout: Cmax (ng/mL)

{"Mol": "C=CC(=O)Nc1cc(Nc2ncc(Cl)c(O[C@@H]3CO[C@H]4[C@@H]3OC[C@H]4O)n2)ccc1N(C)CCN(C)C", "Experimental readout": "Cmax", "Measured result": 440}
{"Mol": "C=CC(=O)Nc1cc(Nc2ncc(Cl)c(O[C@@H]3CO[C@H]4[C@@H]3OC[C@H]4OC)n2)ccc1N(C)CCN(C)C", "Experimental readout": "Cmax", "Measured result": 911}

---

- Tested target: Receptor-type tyrosine-protein kinase FLT3 (Homo sapiens, UniProt P36888)
- Sequence (P36888 whole entry): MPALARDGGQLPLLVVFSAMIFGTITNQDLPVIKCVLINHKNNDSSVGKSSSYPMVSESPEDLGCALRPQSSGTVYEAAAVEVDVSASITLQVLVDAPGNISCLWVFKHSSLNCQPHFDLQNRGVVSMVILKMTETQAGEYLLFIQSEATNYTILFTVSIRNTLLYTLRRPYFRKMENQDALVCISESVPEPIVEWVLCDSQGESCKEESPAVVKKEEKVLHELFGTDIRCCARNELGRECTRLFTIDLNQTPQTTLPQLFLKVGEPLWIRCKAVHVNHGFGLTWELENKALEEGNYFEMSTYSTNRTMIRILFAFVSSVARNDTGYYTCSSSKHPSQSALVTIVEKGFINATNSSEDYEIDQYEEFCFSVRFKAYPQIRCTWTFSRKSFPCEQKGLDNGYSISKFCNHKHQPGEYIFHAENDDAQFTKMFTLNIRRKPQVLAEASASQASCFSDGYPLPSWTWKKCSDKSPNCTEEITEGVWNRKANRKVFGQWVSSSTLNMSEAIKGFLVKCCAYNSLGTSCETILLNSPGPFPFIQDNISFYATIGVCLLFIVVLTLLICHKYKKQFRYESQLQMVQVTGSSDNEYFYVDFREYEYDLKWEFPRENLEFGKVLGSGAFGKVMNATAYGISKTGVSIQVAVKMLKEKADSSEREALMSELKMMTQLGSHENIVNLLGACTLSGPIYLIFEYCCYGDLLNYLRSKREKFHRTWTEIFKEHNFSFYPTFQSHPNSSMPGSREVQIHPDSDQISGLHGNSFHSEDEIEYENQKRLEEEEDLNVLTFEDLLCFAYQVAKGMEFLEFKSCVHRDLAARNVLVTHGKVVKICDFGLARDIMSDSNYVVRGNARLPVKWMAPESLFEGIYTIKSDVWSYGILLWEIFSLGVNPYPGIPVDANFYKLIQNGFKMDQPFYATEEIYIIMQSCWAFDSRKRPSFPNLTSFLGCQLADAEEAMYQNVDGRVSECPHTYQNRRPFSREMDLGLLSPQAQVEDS
Experimental readout: IC50 (µM)

{"Mol": "C=CC(=O)Nc1cc(Nc2ncc(Cl)c(O[C@@H]3CO[C@H]4[C@@H]3OC[C@H]4OC)n2)ccc1N(C)CCN(C)C", "Tested target": "Receptor-type tyrosine-protein kinase FLT3 (Homo sapiens, UniProt P36888)", "Experimental readout": "IC50", "Measured result": 0.132}

---

- System: BaF3
- Experimental protocol: cells
- Conditions: Mus musculus, BaF3, 72 h
1.0 if IC50 is below 0.3 µM. 0.0 if not; exact matches included in 0.0.

{"Mol": "C=CC(=O)Nc1cc(Nc2ncc(Cl)c(O[C@@H]3CO[C@H]4[C@@H]3OC[C@@H]4F)n2)ccc1N(C)CCN(C)C", "Class": 0.0}
{"Mol": "C=CC(=O)Nc1cc(Nc2ncc(Cl)c(O[C@@H]3CO[C@H]4[C@@H]3OC[C@H]4OC)n2)ccc1N(C)CCN(C)C", "Class": 1.0}
{"Mol": "C=CC(=O)Nc1cc(Nc2ncc(Cl)c(O[C@@H]3CO[C@H]4[C@@H]3OC[C@H]4F)n2)ccc1N(C)CCN(C)C", "Class": 0.0}
{"Mol": "CN1CCN(C2CCN(c3ccc(Nc4ncc(Cl)c(O[C@@H]5CO[C@H]6[C@@H]5OC[C@H]6O)n4)cc3Cl)CC2)CC1", "Class": 0.0}
{"Mol": "C=CC(=O)Nc1cc(Nc2ncc(Cl)c(O[C@@H]3CO[C@H]4[C@@H]3OC[C@H]4OCC)n2)ccc1N(C)CCN(C)C", "Class": 0.0}
{"Mol": "C=CC(=O)Nc1cc(Nc2ncc(Cl)c(O[C@@H]3CO[C@H]4[C@@H]3OC[C@H]4OC(C)C)n2)ccc1N(C)CCN(C)C", "Class": 0.0}

---

- System: BaF3
- Experimental protocol: cells
- Conditions: Mus musculus, BaF3, 72 h

{"Mol": "C=CC(=O)Nc1cc(Nc2ncc(Cl)c(O[C@@H]3CO[C@H]4[C@@H]3OCC4(F)F)n2)ccc1N(C)CCN(C)C", "Tested target": "BaF3", "IC50 / nM": 56.4}
{"Mol": "C=CC(=O)Nc1cc(Nc2ncc(Cl)c(O[C@@H]3CO[C@H]4[C@@H]3OC[C@H]4F)n2)ccc1N(C)CCN(C)C", "Tested target": "BaF3", "IC50 / nM": 46.4}
{"Mol": "CN1CCN(C2CCN(c3ccc(Nc4ncc(Cl)c(O[C@@H]5CO[C@H]6[C@@H]5OC[C@H]6O)n4)cc3Cl)CC2)CC1", "Tested target": "BaF3", "IC50 / nM": 1650}
